Reference source for all entries: the supplement of paper PMC11451515

Tested on: P12-Ichikawa
MEASUREMENT_PROTOCOL: cell viability relative to DMSO control; higher = less cytotoxic
CONDITION_CONTEXT: RPMI 5 mM glucose + 10% dialyzed FBS; 48 h; 0.0632 µM
Below, each of the compounds is paired with its reported cell viability value.
The reply should contain only the number, in %.

Below, 3 compounds whose answers are already recorded.
CC(C)=CCC/C(C)=C/CC/C(C)=C/CSc1ccccc1C(=O)O = 98.1
CC(C)N(C[C@H]1O[C@@H](n2cnc3c(N)ncnc32)[C@H](O)[C@@H]1O)[C@H]1C[C@@H](CCc2nc3cc(C(C)(C)C)ccc3[nH]2)C1 = 96.5
CCC[S+](=O)([O-])Nc1ccc(F)c(C(=O)c2c[nH]c3ncc(Cl)cc23)c1F = 120

[ask] Query: cell viability; subject: `COc1ccc(C(=O)c2c(C)n(CCN3CCOCC3)c3ccccc23)cc1`
[reply] 99.3

[ask] Query: cell viability; subject: Cc1ccccc1C(OCCN(C)C)c1ccccc1 (configuration not stated)
[reply] 121

[ask] Query: cell viability; subject: `O=C(NCCCCN1CCOCC1)c1cc2ccccc2o1`
[reply] 118

[ask] Query: cell viability; subject: `CC(=O)N[C@@H]1[C@@H](NC(N)=N)\C=C(/O[C@H]1[C@H](O)[C@H](O)CO)C(O)=O`
[reply] 113

[ask] Query: cell viability; subject: `CN(C)c1ccc2nc3ccc(N(C)C)cc3[s+]c2c1`
[reply] 104

[ask] Query: cell viability; subject: C[C@H](CCC(=O)O)[C@H]1CCC2C3C[C@H](O)[C@@H]4C[C@H](O)CC[C@]4(C)C3CC[C@@]21C (some centres not stated)
[reply] 108

[ask] Query: cell viability; subject: N#CC(c1ccnc(NCCc2cccnc2)n1)c1nc2ccccc2s1 (configuration not stated)
[reply] 142

[ask] Query: cell viability; subject: `ClC1=CC=C2N/C3=N/C(=O)CN3CC2=C1Cl`
[reply] 124

[ask] Query: cell viability; subject: `CCc1cc2c(cc1N1CCC(N3CCOCC3)CC1)C(C)(C)c1[nH]c3cc(C#N)ccc3c1C2=O`
[reply] 136

[ask] Query: cell viability; subject: `C[C@@H]1CN(Cc2ccc(F)cc2)[C@@H](C)CN1C(=O)c1cc2c(C(=O)C(=O)N(C)C)cn(C)c2cc1Cl`
[reply] 122

[ask] Query: cell viability; subject: `C[C@H]1C[C@H]2[C@@H]3CC[C@](O)(C(=O)CO)[C@@]3(C)C[C@H](O)[C@@H]2[C@@]\4(C)/C=C\C(=O)\C=C14`
[reply] 88.2

[ask] Query: cell viability; subject: `c1ccc2c(Cc3c[nH]c4ccccc34)c[nH]c2c1`
[reply] 89.6

[ask] Query: cell viability; subject: `COc1cc([C@@H]2c3cc4c(cc3[C@H](O)[C@H]3COC(=O)[C@@H]23)OCO4)cc(OC)c1OC`
[reply] 97.6

[ask] Query: cell viability; subject: `O=C1CCC[C@@H]2[C@H]3CCCN4CCC[C@@H](CN12)[C@@H]34`
[reply] 86.8

* * *

System: SEM cells
MEASUREMENT_PROTOCOL: AUC of viability dose-response curve (% viability x log10 dose units); higher = less sensitive
CONDITION_CONTEXT: RPMI 5 mM glucose + 10% FBS; 48 h
PROPERTY_NAME: AUC of viability dose-response curve
I'd appreciate a reply containing only the number, no unit.

Below, 5 molecules whose answers are already recorded.
CCN(CCO)CCCOc1ccc2c(Nc3cc(CC(=O)Nc4cccc(F)c4)[nH]n3)ncnc2c1 = 280
c1ccc2c(Cc3c[nH]c4ccccc34)c[nH]c2c1 = 396
CC(C)OC(=O)C(C)(C)Oc1ccc(C(=O)c2ccc(Cl)cc2)cc1 = 423
CC[S+](=O)([O-])Nc1ccc2c(c1)/C(=C(/Nc1ccc(CN3CCCCC3)cc1)c1ccccc1)C(=O)N2 = 232
COc1ccc(OC)c(-c2nnc3ccc(-c4ccc(OC)c(O[C@@H]5CCOC5)c4)nn23)c1 = 470

[ask] Query: AUC of viability dose-response curve; subject: `CCN1C[C@H](C)[N]2C(=C(O)C3=C2\C(=N/N(CC4=CC=C(F)C(=C4)Cl)C3=O)C(=O)NC)C1=O`
[reply] 409

[ask] Query: AUC of viability dose-response curve; subject: CCC(C)N1\N=C/N(C1=O)C2=CC=C(C=C2)N3CCN(CC3)C4=CC=C(OC[C@H]5CO[C@@](C[N]6C=NC=N6)(O5)C7=CC=C(Cl)C=C7Cl)C=C4 (stereo not given in full)
[reply] 472

[ask] Query: AUC of viability dose-response curve; subject: `O=C/1NC(=O)C(=C1C2=CN=C3C=CC=C[N]23)/C4=C[N]5CCN(CC6=C5C4=CC=C6)C(=O)N7CCOCC7`
[reply] 153

[ask] Query: AUC of viability dose-response curve; subject: `CCOC(=O)[C@@]1(CCCCCCOc2ccc(Cl)cc2)CO1`
[reply] 413

[ask] Query: AUC of viability dose-response curve; subject: `C[C@]12Cc3cn[nH]c3C[C@@H]1CC[C@@H]1[C@@H]2CC[C@@]2(C)[C@H]1CC[C@]2(C)O`
[reply] 473

* * *

Test system: P12-Ichikawa
MEASUREMENT_PROTOCOL: cell viability relative to DMSO control; higher = less cytotoxic
CONDITION_CONTEXT: HPLM + 10% dialyzed FBS; 48 h; 0.0211 µM
Below, each of the compounds is paired with its reported cell viability value.
The reply should contain only the number, in %.

Below, 2 compounds whose answers are already recorded.
CCN1C[C@H](C)[N]2C(=C(O)C3=C2\C(=N/N(CC4=CC=C(F)C(=C4)Cl)C3=O)C(=O)NC)C1=O = 102
CCOC(=O)[C@@]1(CCCCCCOc2ccc(Cl)cc2)CO1 = 114

[ask] Request - read-out cell viability | tested on P12-Ichikawa | compound `C[C@@H]1CCN(C(=O)CC#N)C[C@@H]1N(C)c1ncnc2[nH]ccc12`
[reply] 91.3

[ask] Request - read-out cell viability | tested on P12-Ichikawa | compound `CC(C)=CCC/C(C)=C/CC/C(C)=C/CC/C(C)=C/CC/C(C)=C/CC/C(C)=C/CC/C(C)=C/CC/C(C)=C/CC/C(C)=C/CO`
[reply] 112

* * *

System: P12-Ichikawa
MEASUREMENT_PROTOCOL: cell viability relative to DMSO control; higher = less cytotoxic
CONDITION_CONTEXT: HPLM + 10% dialyzed FBS; 48 h; 0.000781 µM
Below, each of the compounds is paired with its reported cell viability value.
The reply should contain only the number, in %.

CC1(CN2CCC(n3c(=O)[nH]c4ccccc43)CC2)OCc2ccccc2-n2cccc21 (centres undefined) = 99.7

Pending compound:
[ask] Query: cell viability; subject: `CN(C)C1=CC(=CC=C1)C\2=C\3C(=O)N(NC3=C/C(=O)N2C)C4=CC=CC=C4Cl`
[reply] 114

* * *

Below, each of the compounds is paired with its reported cell viability value.
Test system: NOMO1
MEASUREMENT_PROTOCOL: cell viability relative to DMSO control; higher = less cytotoxic
CONDITION_CONTEXT: RPMI 5 mM glucose + 10% dialyzed FBS; 48 h; 5.12 µM

Below, 5 compounds whose answers are already recorded.
CCn1c(-c2nonc2N)nc2c(C#CC(C)(C)O)ncc(OC[C@H]3CCCNC3)c21 = 74.2%
C=C1C(=O)[C@@]23C(CC[C@@H]1[C@H]2O)[C@@]12CO[C@]3(O)[C@@H](O)[C@@H]1C(C)(C)CC[C@@H]2O (stereo partly drawn) = 124%
CN1CCN(c2c(F)cc3c(=O)c(C(=O)O)cn(CCF)c3c2F)CC1 = 118%
C[C@@H]1CCN(C(=O)CC#N)C[C@@H]1N(C)c1ncnc2[nH]ccc12 = 91.9%
O=C(CC12CC3CC(CC(C3)C1)C2)Nc1cccc2nc(NCCNCCO)ccc12 = 77.4%

Pending compound:
[ask] Query: cell viability; subject: `C[C@H]1C[C@H]2[C@@H]3CC[C@](O)(C(=O)CO)[C@@]3(C)C[C@H](O)[C@@H]2[C@@]\4(C)/C=C\C(=O)\C=C14`
[reply] 101%

* * *

Tested on: SEM cells
MEASUREMENT_PROTOCOL: cell viability relative to DMSO control; higher = less cytotoxic
CONDITION_CONTEXT: HPLM + 10% dialyzed FBS; 48 h; 0.0632 µM
Below, each of the compounds is paired with its reported cell viability value.
The reply should contain only the number, in %.

Cc1ccc(C(=O)Nc2cccc(C(F)(F)F)c2)cc1-c1ccc2nc(NCCN3CCOCC3)ncc2c1 = 107
COc1ccc(C(=O)c2c(C)n(CCN3CCOCC3)c3ccccc23)cc1 = 99.8
C[C@@H]1CN(Cc2ccc(F)cc2)[C@@H](C)CN1C(=O)c1cc2c(C(=O)C(=O)N(C)C)cn(C)c2cc1Cl = 111
C/C(=N\NC(=S)N1CCC1)c1ccccn1 = 8.49

[ask] Query: cell viability; subject: CCCC(C)(COC(N)=O)COC(=O)NC(C)C (centres undefined)
[reply] 139

[ask] Query: cell viability; subject: `C[C@]12Cc3cn[nH]c3C[C@@H]1CC[C@@H]1[C@@H]2CC[C@@]2(C)[C@H]1CC[C@]2(C)O`
[reply] 100

[ask] Query: cell viability; subject: `CC(=O)N[C@@H]1[C@@H](NC(N)=N)\C=C(/O[C@H]1[C@H](O)[C@H](O)CO)C(O)=O`
[reply] 107

[ask] Query: cell viability; subject: `CCn1c(-c2nonc2N)nc2c(C#CC(C)(C)O)ncc(OC[C@H]3CCCNC3)c21`
[reply] 75.2
